- TARGET_ENTITY: recombinant GST-TEAD1 proteins (209 to 426 a.a.) (Homo sapiens, UniProt P28347)
- Construct: recombinant GST-TEAD1 proteins (209 to 426 a.a.)
- Sequence (P28347 209-426): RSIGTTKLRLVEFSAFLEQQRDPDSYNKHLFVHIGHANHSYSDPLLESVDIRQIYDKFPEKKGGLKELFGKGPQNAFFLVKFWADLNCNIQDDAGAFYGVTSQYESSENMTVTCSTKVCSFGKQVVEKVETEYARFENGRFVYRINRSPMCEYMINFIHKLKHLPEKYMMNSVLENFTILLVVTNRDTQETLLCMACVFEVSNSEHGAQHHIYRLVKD
- ASSAY_EXPLANATION: Evaluation of palmitoylation of TEAD protein
- Format: biochemical
- CONDITION_SUMMARY: 5 μM compound, 15 minutes preincubation, 3 μM alkyne palmitoyl-CoA 30 minutes, pH 6.4, vs DMSO control
OUTCOME_MEASURE: inhibition at 5 µM

C=CC(=O)Nc1cnc2c(c1)c(C)nn2-c1cccc(OC)c1 < 40%
C=CC(=O)Nc1cnc2c(c1)c(Br)cn2Cc1ccc(C(F)(F)F)cc1 > 80%
C=CC(=O)Nc1cnc2c(ccn2-c2ccc(C(F)(F)F)cc2)c1 > 80%
C=CC(=O)Nc1cnc2c(c1)c(C)nn2-c1ccc(C(F)(F)F)c(OC)c1 40 to 80%
C=CC(=O)Nc1cnc2c(n1)c(C)nn2Cc1ccc(C(F)(F)F)cc1 40 to 80%
C=CC(=O)Nc1cnc2c(c1)c(C)nn2-c1ccc(C(C)(C)C)cc1 40 to 80%
C=CC(=O)Nc1cnc2c(c1)c(C)nn2Cc1ccc(C(F)(F)F)cc1 > 80%
C=CC(=O)Nc1cnc2c(c1)c(C)nn2-c1cnc(C(F)(F)F)nc1 40 to 80%

Next compound, inhibition at 5 µM to be filled in.
Query: Need inhibition at 5 µM, item C=CC(=O)Nc1cnc2c(cnn2CCCOC(F)(F)F)c1
Response: < 40%

====

inhibition at 5 µM reference
- TARGET_ENTITY: recombinant GST-TEAD1 proteins (209 to 426 a.a.) (Homo sapiens)
- Construct: recombinant GST-TEAD1 proteins (209 to 426 a.a.)
- ASSAY_EXPLANATION: Evaluation of palmitoylation of TEAD protein
- Assay type: biochemical
- CONDITION_SUMMARY: 5 μM compound, 15 minutes preincubation, 3 μM alkyne palmitoyl-CoA 30 minutes, pH 6.4, vs DMSO control
- Description: Each compound corresponding to a concentration of 5 μM was added to recombinant GST-TEAD1 proteins (209 to 426 a.a.) and cultured for 15 minutes. […] Analysis of the sample was performed using SDS-PAGE and streptavidin HRP (Thermo scientific). The resulting values were quantified using an Image J (NIH). For the intensity of the band obtained from Streptavidin blot, a palmitoylation inhibitory activity was analyzed based on the control group (DMSO). […]

Recorded results for 3 molecules are shown here.
MOLECULE	inhibition at 5 µM
C=CC(=O)Nc1cnc2c(ccn2Cc2ccc(C(F)(F)F)cc2)c1	40 to 80%
C=CC(=O)Nc1cnc2c(c1)c(C)nn2-c1ccc(C(F)(F)F)cc1	> 80%
C=CC(=O)Nc1cnc2c(c1)c(C)cn2-c1ccc(OC(F)(F)F)cc1	> 80%

Query: Quick check: inhibition at 5 µM of C=CC(=O)Nc1cnc2c(c1)c(C)nn2-c1ccccc1C(F)(F)F ?
Response: < 40%

Query: Fill blank: measured inhibition at 5 µM of the molecule C=CC(=O)Nc1cnc2c(c1)c(C)nn2CC1CCC(F)(F)CC1 is ____.
Response: 40 to 80%

Query: Can you share its inhibition at 5 µM? I mean this molecule: C=CC(=O)Nc1cnc2c(c1)c(C)nn2CCC(C)C
Response: 40 to 80%

Query: Request the reported inhibition at 5 µM associated with C=CC(=O)Nc1cnc2c(c1)c(C)nn2-c1ccc(C#N)cc1
Response: < 40%

Query: Data request, read-out inhibition at 5 µM, for C=CC(=O)Nc1ccc2cnn(Cc3ccc(C(F)(F)F)cc3)c2c1
Response: 40 to 80%

Query: Which value of inhibition at 5 µM has been reported for C=CC(=O)Nc1cnc2c(c1)c(C)nn2Cc1ccc(OC(F)(F)F)cc1 in the records?
Response: 40 to 80%

Query: Any idea what its inhibition at 5 µM is? The molecule is C=CC(=O)Nc1cnc2c(c1)c(C)cn2C1CCCCC1
Response: 40 to 80%

Query: For the molecule C=CC(=O)Nc1cnc2c(c1)c(C)nn2C1=CCC(C(F)(F)F)CC1 (stereo not shown) , what inhibition at 5 µM is on record?
Response: 40 to 80%

====

The following molecules are shown together with reported inhibition at 5 µM values.
- TARGET_ENTITY: recombinant GST-TEAD1 proteins (209 to 426 a.a.) (Homo sapiens)
- Construct: recombinant GST-TEAD1 proteins (209 to 426 a.a.)
- ASSAY_EXPLANATION: Evaluation of palmitoylation of TEAD protein
- Type: biochemical
- CONDITION_SUMMARY: 5 μM compound, 15 minutes preincubation, 3 μM alkyne palmitoyl-CoA 30 minutes, pH 6.4, vs DMSO control

C=CC(=O)Nc1cnc2c(c1)c(C)nn2-c1ccnc(C(F)(F)F)c1 < 40%
C=CC(=O)Nc1cnc2c(c1)c(C)nn2-c1cccnc1 < 40%
C=CS(=O)(=O)Nc1cnc2c(c1)c(C)nn2-c1ccc(C(F)(F)F)cc1 > 80%
CC=CC(=O)Nc1cnc2c(c1)c(C)nn2-c1ccc(C(F)(F)F)cc1 40 to 80%

Query: What value of inhibition at 5 µM has been reported for the following molecule? C=CC(=O)Nc1cnc2c(c1)c(C)cn2-c1ccc(C(F)(F)F)c(OC)c1
Response: > 80%

Query: What value of inhibition at 5 µM has been recorded for this entry: C=CC(=O)Nc1ccc2c(c1)CCN2Cc1ccc(C(F)(F)F)cc1
Response: > 80%

Query: # input molecule: C=CC(=O)Nc1cnc2c(c1)c(C)nn2-c1ccc(C(F)(F)F)cn1 ; wanted: its inhibition at 5 µM
Response: < 40%

Query: Query (molecule): C=CC(=O)Nc1ncc2c(cnn2Cc2ccc(C(F)(F)F)cc2)n1 ; field requested: inhibition at 5 µM
Response: < 40%

Query: Quick one: inhibition at 5 µM of C=CC(=O)Nc1cnc2c(c1)c(C)nn2-c1ccc(Cl)c(Cl)c1 ?
Response: 40 to 80%

====

- TARGET_ENTITY: recombinant GST-TEAD1 proteins (209 to 426 a.a.) (Homo sapiens, UniProt P28347)
- Construct: recombinant GST-TEAD1 proteins (209 to 426 a.a.)
- ASSAY_EXPLANATION: Evaluation of palmitoylation of TEAD protein
- Format: biochemical
- CONDITION_SUMMARY: 5 μM compound, 15 minutes preincubation, 3 μM alkyne palmitoyl-CoA 30 minutes, pH 6.4, vs DMSO control
OUTCOME_MEASURE: inhibition at 5 µM

Query: Need inhibition at 5 µM of C=CC(=O)Nc1cnc2c(c1)c(C)nn2-c1ccc(F)cc1 , thanks.
Response: < 40%

Query: Look at this compound and give its reported inhibition at 5 µM. C=CC(=O)Nc1cnc2c(c1)c(C)nn2-c1ccc(C(C)CC)cc1 (stereo not drawn)
Response: 40 to 80%

Query: Bench note: what inhibition at 5 µM did C=CC(=O)Nc1cnc2c(ccn2-c2ccc(C(F)(F)F)cc2)n1 show?
Response: 40 to 80%

Query: I have this compound here, C=CC(=O)Nc1cnc2c(c1)c(C)nn2-c1cc(Cl)c(Cl)cc1C , and I need its recorded inhibition at 5 µM.
Response: 40 to 80%

Query: Name the reported inhibition at 5 µM value associated with the compound C=CC(=O)Nc1cnc2c(c1)c(C)nn2Cc1ccc(C(F)(F)F)s1
Response: 40 to 80%

====

- TARGET_ENTITY: recombinant GST-TEAD1 proteins (209 to 426 a.a.) (Homo sapiens)
- Construct: recombinant GST-TEAD1 proteins (209 to 426 a.a.)
- ASSAY_EXPLANATION: Evaluation of palmitoylation of TEAD protein
- Type: biochemical
- CONDITION_SUMMARY: 5 μM compound, 15 minutes preincubation, 3 μM alkyne palmitoyl-CoA 30 minutes, pH 6.4, vs DMSO control
OUTCOME_MEASURE: inhibition at 5 µM

COMPOUND	OUTCOME_MEASURE	OBSERVED
C=CC(=O)Nc1cnc2c(c1)c(C)nn2-c1ccc(C(F)(F)F)nc1 [Compound 77]	inhibition at 5 µM	40 to 80%
C=CC(=O)Nc1cnc2c(c1)c(C)nn2-c1cc(OC)cc(OC)c1 [Compound 84]	inhibition at 5 µM	< 40%
C=CC(=O)Nc1ccc2c(c1)c(C)nn2Cc1ccc(C(F)(F)F)cc1 [Compound 33]	inhibition at 5 µM	40 to 80%
C=CC(=O)Nc1cnc2c(c1)c(C)cn2CC1CCCC1 [Compound 9]	inhibition at 5 µM	> 80%

Query: inhibition at 5 µM lookup needed for C=CC(=O)Nc1cnc2c(cnn2Cc2ccc(C(F)(F)F)cc2)n1 [Compound 16] , thanks.
Response: < 40%

Query: inhibition at 5 µM for C=CC(=O)Nc1cnc2c(c1)c(C)cn2Cc1ccc(C(C)(C)C)cc1 [Compound 44] ?
Response: 40 to 80%

Query: I am curious: what inhibition at 5 µM value has been reported for C=CC(=O)Nc1cnc2c(c1)c(C)nn2-c1ccc(C(F)(F)F)s1 [Compound 89] ?
Response: 40 to 80%

Query: inhibition at 5 µM lookup needed for C=CC(=O)Nc1cnc2c(c1)c(C)cn2-c1ccc(C(F)(F)F)cc1 [Compound 27] , thanks.
Response: > 80%

Query: Given the compound C=CC(=O)Nc1cnc2c(c1)c(C)nn2-c1cnc(C(F)(F)F)c(C)c1 [Compound 99] , what is its reported inhibition at 5 µM?
Response: 40 to 80%
